Quick reference for inhibition among some molecules
Target: Homeodomain-interacting protein kinase 1 (Homo sapiens);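 also: values are mean percent inhibition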
Conditions: at 1 µM
Put your answer as a value accompanied by its unit after it.

In the examples that follow, each entry is paired with its recorded inhibition.
Provide value of inhibition for this record tested with Homeodomain-interacting protein kinase 1 (Homo sapiens): "COc1cc2ncn(-c3cc(OCc4ccccc4Cl)c(C(N)=O)s3)c2cc1OC"
5.3%

Provide value of inhibition for this record tested with Homeodomain-interacting protein kinase 1 (Homo sapiens): "CN(C)c1cc2c(Nc3ccc4nc(Cc5ccccc5)[nH]c4c3)ncnc2cn1"
2.19%

Others:
Provide value of inhibition for this record tested with Homeodomain-interacting protein kinase 1 (Homo sapiens): "c1cnn2ncc(-c3ccnc(Nc4ccc5c(c4)OCCO5)n3)c2c1"
93%

Provide value of inhibition for this record tested with Homeodomain-interacting protein kinase 1 (Homo sapiens): "Cn1cc(C=C2C(=O)Nc3cccnc32)c2ccccc21"
13.8%

Provide value of inhibition for this record tested with Homeodomain-interacting protein kinase 1 (Homo sapiens): "CCN1CCC(CC(=O)Nc2n[nH]c3nc(-c4cccs4)c(Br)cc23)CC1"
6.48%

###

Target: Tyrosine-protein kinase Yes (Homo sapiens);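 also: mean inhibition of YES, from the GSK PKIS dataset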
Details: at 0.1 µM
metric.name: inhibition (%)
Quick note: give the figure in %, leave out the unit.

Entry under review: "CC(=O)Nc1cccc(C#Cc2cncnc2Nc2ccc(OCc3cccc(F)c3)c(Cl)c2)n1" . Reported inhibition?
4.46

Entry under review: "CCCN1CCC(Oc2cc(Nc3nc(Nc4cccc(F)c4C(N)=O)c4cc[nH]c4n3)c(OC)cc2Cl)CC1" . Reported inhibition?
1.16

Entry under review: "CCn1c(-c2nonc2N)nc2c(N3CCCC3)nccc21" . Reported inhibition?
-4.35

Entry under review: "COc1ccc(-c2ccncc2)cc1C(N)=O" . Reported inhibition?
-1.44

Others:
Entry under review: "NCc1ccc(-c2nc(-c3ccc(Cl)c(O)c3)c(-c3ccncc3)[nH]2)cc1" . Reported inhibition?
5.85

###

Target: Mitogen-activated protein kinase 11 (Homo sapiens);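 also: reported values are averaged (mean) percent inhibition of p38beta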
Conditions: at 0.1 µM
Quick reference for inhibition among some compounds
Quick note: give the figure in %, leave out the unit.

In the examples that follow, each entry is paired with its recorded inhibition.
Entry under review: "O=C1NC(=O)C(N2CCc3ccccc32)=C1c1ccc(Cl)cc1" . Reported inhibition?
5.07

Entry under review: "CCn1c(-c2nonc2N)nc2c(C#CC(C)(C)O)nc(CN3CCCC3)cc21" . Reported inhibition?
-2.47

Entry under review: "Cc1nnc(-c2ccc(C)c(-c3ccc(C(=O)Nc4cccc(C#N)c4)cc3)c2)o1" . Reported inhibition?
5.2

Entry under review: "c1cnn2ncc(-c3ccnc(Nc4ccc5c(c4)OCCO5)n3)c2c1" . Reported inhibition?
3.66

Entry under review: "Cc1nn(C)c2cc(N(C)c3ccnc(Nc4cccc(S(N)(=O)=O)c4)n3)ccc12" . Reported inhibition?
3.77

Others:
Entry under review: "CCc1cccc(NC(=O)Nc2ccc(Oc3ccc4nc(NC(=O)OC)[nH]c4c3)cc2)c1" . Reported inhibition?
1.54

Entry under review: CC1=C(C(=O)Nc2ccc3[nH]ncc3c2)C(c2ccc(Cl)c(Cl)c2)CC(=O)N1 (stereo not given) . Reported inhibition?
0.46

Entry under review: "CS(=O)(=O)CCNCc1nc(-c2ccc3ncnc(Nc4ccc(F)c(Cl)c4)c3c2)cs1" . Reported inhibition?
2.75

Entry under review: "COc1ccc(COc2ccc(Cc3cnc(N)nc3N)cc2OC)cc1" . Reported inhibition?
2.44

Entry under review: "CC(C)=Cc1cccc2c1/C(=N/Nc1ccc(S(N)(=O)=O)cc1)C(=O)N2" . Reported inhibition?
0.78

Entry under review: "CS(=O)(=O)CCNCc1ccc(-c2ccc3ncnc(Nc4ccc(OCc5cccc(F)c5)c(C(F)(F)F)c4)c3c2)o1" . Reported inhibition?
3.77

Entry under review: "COc1ccc(-c2nn3ncccc3c2-c2ccnc(Nc3ccc(Cl)c(C(F)(F)F)c3)n2)cc1" . Reported inhibition?
2.93

Entry under review: "Cc1ccc(C(=O)NC2CCCCC2)cc1-c1ccc(C(=O)NCC2CC2)cc1" . Reported inhibition?
4.59

Entry under review: "O=C1Nc2ccc(C(=O)c3ccco3)cc2C1=Cc1cc(Cl)c(O)c(Cl)c1" . Reported inhibition?
1.71

Entry under review: "CS(=O)(=O)CCN(CC#N)Cc1ccc(-c2ccc3ncnc(Nc4ccc(OCc5cccc(F)c5)c(Cl)c4)c3c2)o1" . Reported inhibition?
1.26

Entry under review: "CS(=O)(=O)CCNCc1ccc(-c2ccc3ncnc(Nc4ccc(OCc5ccccc5)c(Cl)c4)c3c2)o1" . Reported inhibition?
-1.17

Entry under review: "NC(=O)c1ccc(-c2nc(-c3ccccn3)c(-c3ccc4c(c3)OCO4)[nH]2)cc1" . Reported inhibition?
5.42

Entry under review: "COc1ccc(-c2ccncc2)cc1C(N)=O" . Reported inhibition?
-0.28

Entry under review: "CS(=O)(=O)Nc1ccc(N/C=C2\C(=O)Nc3ccccc32)cc1" . Reported inhibition?
-0.39

Entry under review: "CNC(=O)c1cncc(/C=C/c2c(Cl)cccc2Cl)c1" . Reported inhibition?
2.44
